B1: TPR t1 (parent)
chain: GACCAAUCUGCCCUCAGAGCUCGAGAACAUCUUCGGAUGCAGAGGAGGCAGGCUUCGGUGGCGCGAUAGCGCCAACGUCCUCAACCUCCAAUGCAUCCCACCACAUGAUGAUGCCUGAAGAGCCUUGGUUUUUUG

variants of: B1; experiment: polymerase ribozyme fitness, log enrichment relative to wild type (log ratio); higher = more active; in vitro selection for triplet polymerase activity
Below is a list of entries, each paired with its recorded polymerase ribozyme fitness (log ratio) value.
METRIC_NAME: polymerase ribozyme fitness (log ratio)

G51C U87A G120A
-3.27
A29U A46C G48A A84C
-3.31
U81C C82A C98U
-3.03
A6U G48A A91C C114A
-2.36
C11U C72A U78A C97A
-5.56
C70U G117U A118U U130C
-3.8
A5U C70G A119G
-0.737
A37U A50U C94U
-1.81
G47U G120C U131G
0.253
C40U G47A A118G
-2.47
G69U G117A
-0.296
